- experiment_description: Cmax in CD-1 mouse at 10 mg/kg, po administered via gavage by LC-MS/MS analysis
- Format: ADME, organism-based
- Parameters: route oral, dose 10 mg/kg
- test_context: in vivo
result_type: Cmax (µM)
The figure you give is taken to be in µM; do not add the unit.

For the compound CNC(=O)c1cn(C[C@H](F)CCc2ccc(NC(=O)Cc3cc(OC4CC(F)(F)C4)cc(C)n3)nn2)nn1.Cl.Cl , what Cmax is on record? 19

# credit: ChEMBL document CHEMBL4673258
